Target: Human His6-SPSB2^SPRY (86–219) (human) (UniProt Q99619)
Assay: SPR
Square brackets hold non-standard residues; d marks the D form. Primed or numbered codes have the meaning given here. Ends that are not written are not given here. PEG4′ = tetra(ethylene glycol) spacer
measured.property: Kd
Give the number first and the unit second.

Could you tell me which Kd is on file for [PEG4′]RGDGSGVDINNN [linear RGD peptide] ?
162 nM

Could you tell me which Kd is on file for KEEKDINNNVKKT [iNOS peptide] ?
0.8 nM
